# maps each entry to its kon
Target: T1, recombinant human CD73 (SEQ ID NO:70) (human, UniProt P21589 27-549)
T1 construct: Soluble recombinant protein in normal SPR running buffer (open conformation), the soluble enzyme assay and HDX-MS; SPR stock bought from BPS Bioscience; also called rhuCD73; CD73 in the open conformation
T1 sequence: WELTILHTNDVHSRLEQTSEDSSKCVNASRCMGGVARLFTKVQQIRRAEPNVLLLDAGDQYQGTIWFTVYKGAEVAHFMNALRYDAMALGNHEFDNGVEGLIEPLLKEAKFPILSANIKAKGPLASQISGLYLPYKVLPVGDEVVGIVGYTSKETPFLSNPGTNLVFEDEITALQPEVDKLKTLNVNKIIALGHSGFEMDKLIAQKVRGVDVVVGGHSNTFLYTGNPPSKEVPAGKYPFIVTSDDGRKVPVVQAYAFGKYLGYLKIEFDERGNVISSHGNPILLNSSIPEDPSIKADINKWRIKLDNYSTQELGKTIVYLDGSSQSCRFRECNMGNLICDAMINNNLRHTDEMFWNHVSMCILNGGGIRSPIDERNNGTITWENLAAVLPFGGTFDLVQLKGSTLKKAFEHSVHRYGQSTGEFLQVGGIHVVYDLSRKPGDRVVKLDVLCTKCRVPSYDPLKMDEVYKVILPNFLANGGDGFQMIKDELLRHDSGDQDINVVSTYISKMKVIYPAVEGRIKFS
Assay: SPR (Biacore 8K), antibody captured on anti-human Fc, CD73 as analyte, open conformation
Use M⁻¹ s⁻¹ as the unit, but write only the number.

In the examples that follow, each entry is paired with its recorded kon.
>  <binder>
CL25_hu_9-4 (antibody, V domains shown, Humanized CL25 antibody) VH: QVQLVQSGAEVKKPGSSVKVSCKASGYTFTSYGLSWVRQAPGQGLEWMGEIYPGSGNTYYNEKFKGRVTITADESTSTAYMELSSLRSEDTAVYYCARYDYLGSSYGFDYWGAGTTVTVSS VL: DIQMTQSPSSLSASVGDRVTITCKASQDVSTAVAWYQQKPGKAPKLLLYSASYRYSGVPSRFSGSGSGTDYTLTISSLQPEDFATYYCQQHYNTPYTFGGGTKLEIK

>  <unitDescriptor>
M⁻¹ s⁻¹

>  <reportedResult>
382000

$$$$
>  <binder>
CL25_hu_11-4 (antibody, V domains shown, Humanized CL25 antibody) VH: QVQLVQSGAEVKKPGASVKVSCKASGYTFTSYGLSWVRQATGQGLEWMGEIYPGSGNTYYNEKFKGRVTMTANTSISTAYMELSSLRSEDTAVYYCARYDYLGSSYGFDYWGAGTTVTVSS VL: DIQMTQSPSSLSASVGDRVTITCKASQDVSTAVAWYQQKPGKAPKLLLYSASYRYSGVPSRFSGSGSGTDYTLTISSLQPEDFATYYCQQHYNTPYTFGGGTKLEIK

>  <unitDescriptor>
M⁻¹ s⁻¹

>  <reportedResult>
624000

$$$$
>  <binder>
CL25_hu_10-6 (antibody, V domains shown, Humanized CL25 antibody) VH: EVQLVQSGAEVKKPGESLKISCKGSGYTFTSYGLSWVRQMPGKGLEWMGEIYPGSGNTYYNEKFKGQVTISADKSISTAYLQWSSLKASDTAMYYCARYDYLGSSYGFDYWGAGTTVTVSS VL: AIRMTQSPSSFSASTGDRVTITCKASQDVSTAVAWYQQKPGKAPKLLIYSASYRYSGVPSRFSGSGSGTDFTLTISCLQSEDFATYYCQQHYNTPYTFGGGTKLEIK

>  <unitDescriptor>
M⁻¹ s⁻¹

>  <reportedResult>
524000

$$$$

Now for another entry.
The reported value for CL25_hu_8-6 (antibody, V domains shown, Humanized CL25 antibody) VH: QVQLVQSGAEVKKPGASVKVSCKASGYTFTSYGLSWVRQATGQGLEWMGEIYPGSGNTYYNEKFKGRVTMTRNTSISTAYMELSSLRSEDTAVYYCARYDYLGSSYGFDYWGAGTTVTVSS VL: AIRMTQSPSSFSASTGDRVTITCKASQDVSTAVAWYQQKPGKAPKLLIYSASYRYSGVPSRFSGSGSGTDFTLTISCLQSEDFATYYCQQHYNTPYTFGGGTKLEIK in terms of kon is 715000
